# target or test system: PSMA (Homo sapiens (Human))
# Sequence (Q04609 whole entry): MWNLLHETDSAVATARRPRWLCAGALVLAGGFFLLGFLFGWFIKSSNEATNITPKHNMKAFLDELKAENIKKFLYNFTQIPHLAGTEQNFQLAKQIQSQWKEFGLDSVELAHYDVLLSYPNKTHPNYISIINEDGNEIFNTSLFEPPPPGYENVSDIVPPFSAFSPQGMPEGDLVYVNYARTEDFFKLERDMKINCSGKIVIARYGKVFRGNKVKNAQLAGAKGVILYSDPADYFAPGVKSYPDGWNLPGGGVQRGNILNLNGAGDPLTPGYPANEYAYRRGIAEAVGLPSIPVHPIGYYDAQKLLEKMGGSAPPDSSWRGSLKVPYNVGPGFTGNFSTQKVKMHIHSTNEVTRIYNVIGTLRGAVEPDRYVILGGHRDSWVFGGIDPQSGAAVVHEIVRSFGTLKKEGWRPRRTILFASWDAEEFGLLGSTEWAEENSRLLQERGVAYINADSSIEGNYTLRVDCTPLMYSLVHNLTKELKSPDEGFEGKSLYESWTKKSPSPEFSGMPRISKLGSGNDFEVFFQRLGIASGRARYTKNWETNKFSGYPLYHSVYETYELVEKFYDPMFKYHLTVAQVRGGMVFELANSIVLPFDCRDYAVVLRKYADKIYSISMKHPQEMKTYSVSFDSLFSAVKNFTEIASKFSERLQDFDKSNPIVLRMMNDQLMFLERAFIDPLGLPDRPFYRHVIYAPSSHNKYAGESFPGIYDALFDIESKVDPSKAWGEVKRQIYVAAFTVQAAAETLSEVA
# experiment: NAALADase assay: PSMA inhibitory activity, fluorescence-based Amplex Red Glutamic Acid assay, lysates of LNCaP cell extracts
# Type: biochemical
# conditions used: Table 4; read-out: Ki
// returns Not satisfied unless Ki is strictly below 40 pM, in which case Satisfied

INSERT INTO measurements (compound, target_or_test_system, group_label) VALUES
  ('O=CO[C@@H](CNC(=O)N[C@@H](CCC(=O)O)C(=O)O)NC(=O)CCCNC(=O)c1ccc(F)cc1 [YC-I-26, reference compound]', 'PSMA (Homo sapiens (Human))', 'Not satisfied');

In: Criterion: Ki strictly below 40 pM. Is it met by O=C(O)CC[C@H](NC(=O)N[C@@H](CSCc1ccc(I)cc1)C(=O)O)C(=O)O [DCIBC, reference compound] ?
Out: Satisfied

In: Criterion: Ki strictly below 40 pM. Is it met by O=CO[C@@H](CNC(=O)N[C@@H](CCC(=O)O)C(=O)O)NC(=O)CCCNC(=O)c1ccc(I)cc1F [XY-44] ?
Out: Satisfied

In: Criterion: Ki strictly below 40 pM. Is it met by O=CO[C@@H](CNC(=O)N[C@@H](CCC(=O)O)C(=O)O)NC(=O)CCCNC(=O)c1ccc(Br)cc1 [XY-59] ?
Out: Satisfied

In: Criterion: Ki strictly below 40 pM. Is it met by Cc1cc(Br)ccc1C(=O)NCCCC(=O)N[C@H](CNC(=O)N[C@@H](CCC(=O)O)C(=O)O)OC=O [XY-58] ?
Out: Satisfied

In: Criterion: Ki strictly below 40 pM. Is it met by O=CO[C@@H](CNC(=O)N[C@@H](CCC(=O)O)C(=O)O)NC(=O)CCCNC(=O)c1ccc(C2=CCCCC2)cc1F [XY-45] ?
Out: Not satisfied
